Source listed as the supplement of paper PMC10307832.

So I've got a bunch of compounds here, and I need their relative viability values.
Test system: NCI-H1975
METHOD_DESCRIPTION: relative viability (nuclei count vs DMSO), 5 days (fraction); higher = more cells survive
CONDITION_INFO: first compound 0.01 µM
The response must contain the number and no unit.

Quick check: relative viability of CCN(CC)CCCCNc1ncc2cc(-c3cc(OC)cc(OC)c3)c(NC(=O)NC(C)(C)C)nc2n1 + COc1cccc2cc(-c3nc([C@H]4CC[C@H](C(=O)O)CC4)n4ncnc(N)c34)[nH]c12 [OSI-027] (partner 0.5 µM) ?
0.86

Looking for the measured relative viability of O=c1cc(N2CCOCC2)oc2c(-c3cccc4c3sc3ccccc34)cccc12 + N=C(N)NC(=N)NCCc1ccccc1 [Phenformin] (partner 250 µM) , can you help?
0.414

Record request: relative viability value, item O=c1cc(N2CCOCC2)oc2c(-c3cccc4c3sc3ccccc34)cccc12 + Cc1cc(Nc2cc(N3CCN(C)CC3)nc(Sc3ccc(NC(=O)C4CC4)cc3)n2)n[nH]1 [Tozasertib] (partner 0.1 µM)
0.692

Give the measured relative viability of CCN(CC)CCCCNc1ncc2cc(-c3cc(OC)cc(OC)c3)c(NC(=O)NC(C)(C)C)nc2n1 + COc1cc2c(Oc3ccc(NC(=O)C4(C(=O)Nc5ccc(F)cc5)CC4)cc3F)ccnc2cc1OCCCN1CCOCC1 [Foretinib] (partner 0.25 µM) .
0.931

Would you mind telling me what relative viability value was observed for CCN(CC)CCCCNc1ncc2cc(-c3cc(OC)cc(OC)c3)c(NC(=O)NC(C)(C)C)nc2n1 + O=C(CCCCCCC(=O)Nc1ccccc1)NO [Vorinostat] (partner 1 µM) ?
0.758
